# Target Or Test System: Sphingosine kinase 2 (Homo sapiens) (UniProt Q9NRA0)
# Sequence (Q9NRA0 whole entry): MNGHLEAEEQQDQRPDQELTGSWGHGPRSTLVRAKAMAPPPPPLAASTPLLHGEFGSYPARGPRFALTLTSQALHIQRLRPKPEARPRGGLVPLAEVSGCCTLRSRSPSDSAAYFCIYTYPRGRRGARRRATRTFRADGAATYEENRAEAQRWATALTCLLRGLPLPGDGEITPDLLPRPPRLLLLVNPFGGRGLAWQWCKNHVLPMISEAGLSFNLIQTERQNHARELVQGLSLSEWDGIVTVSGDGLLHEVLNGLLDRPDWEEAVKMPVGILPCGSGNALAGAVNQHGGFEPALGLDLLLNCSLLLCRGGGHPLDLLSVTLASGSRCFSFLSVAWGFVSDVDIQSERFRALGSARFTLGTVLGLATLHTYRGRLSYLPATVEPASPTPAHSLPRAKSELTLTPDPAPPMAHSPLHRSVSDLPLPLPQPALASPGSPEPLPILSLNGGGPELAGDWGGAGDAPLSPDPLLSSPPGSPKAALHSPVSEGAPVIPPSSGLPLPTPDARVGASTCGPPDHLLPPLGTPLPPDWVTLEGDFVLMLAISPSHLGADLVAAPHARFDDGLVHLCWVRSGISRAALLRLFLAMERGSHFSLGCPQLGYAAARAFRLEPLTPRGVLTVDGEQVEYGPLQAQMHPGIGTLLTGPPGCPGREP
# Run Description: Inhibition of human recombinant Sphk2 at 10 uM after 60 mins by ADP2 fluorescence intensity assay
Calls of active or inactive are those of the source. The calls are words filed in the database; no cut-off is given here.
Reported Property: inhibition

[
  {
    "Structure": "Clc1ccc(-c2csc(Nc3ccc4c(c3)OCCO4)n2)cc1",
    "inhibition": "inactive"
  },
  {
    "Structure": "Oc1ccc(Nc2nc(-c3ccc(Br)cc3)cs2)cc1",
    "inhibition": "10.3%"
  },
  {
    "Structure": "Oc1cccc(Nc2nc(-c3ccc(Cl)cc3)cs2)c1",
    "inhibition": "inactive"
  },
  {
    "Structure": "OCc1ccc(Nc2nc(-c3ccc(Cl)cc3)cs2)cc1",
    "inhibition": "inactive"
  },
  {
    "Structure": "COc1ccccc1Nc1nc(-c2ccc(Cl)cc2)cs1",
    "inhibition": "inactive"
  }
]

Looking for the measured inhibition of Oc1ccccc1Nc1nc(-c2ccc(Cl)cc2)cs1 , can you help?
inactive

# inhibition lookup, item Cc1csc(Nc2nc(C34CC5CC(CC(C5)C3)C4)c(C)s2)n1
20.9%

// query inhibition value for entry COc1cc(/C=C/C(=O)Nc2nccs2)cc(OC)c1OC
26.6%

Item under review: COc1cc(Nc2nc(-c3ccc(Cl)cc3)c(C)s2)cc(OC)c1OC . Reported inhibition?
inactive

What value of inhibition has been reported for the following compound? FC(F)(F)c1cc(Nc2nc(-c3ccc(Cl)cc3)cs2)cc(C(F)(F)F)c1
inactive

inhibition for COc1ccc(/C=C/C(=O)Nc2nccs2)cc1OC ?
26.5%

Quick check: inhibition of c1cc2c(cc1Nc1nc(C34CC5CC(CC(C5)C3)C4)cs1)OCCO2 ?
31.7%

Reported inhibition for FC(F)(F)Oc1ccc(Nc2nc(-c3ccc(Cl)cc3)cs2)cc1 : what is it?
inactive

Please look up its inhibition: COc1cc(Nc2nc(-c3ccc(Cl)cc3)cs2)cc(OC)c1OC
inactive

Using the record for Clc1ccc(-c2csc(Nc3ccc4c(c3)OCO4)n2)cc1 , report its inhibition.
inactive

Form field: reported inhibition of COc1ccccc1Nc1nc(C23CC4CC(CC(C4)C2)C3)c(C)s1
41.6%

Requested field: inhibition. Item: CC(C)c1ccc(Nc2nc(-c3ccc(Cl)cc3)cs2)cc1
inactive

I would be grateful if you could share the reported inhibition for CSc1ccc(Nc2nc(C34CC5CC(CC(C5)C3)C4)c(C)s2)cc1 .
inactive

Name the recorded inhibition for CSc1ccc(Nc2nc(-c3ccc(Cl)cc3)c(C)s2)cc1 .
inactive
